Test system: DLD1 NRF2-GOF
Assay: TC50 cytotoxicity; higher = less toxic
Conditions: 72 h; CellTox Green cytotoxicity
Quick list: TC50 cytotoxicity per entry.
assay readout: TC50 cytotoxicity

compound_structure_string=COc1cc(Nc2ncc(F)c(Nc3ccc4c(n3)N(COP(=O)(O)O)C(=O)C(C)(C)O4)n2)cc(OC)c1OC measurement_target="DLD1 NRF2-GOF" assay_readout="TC50 cytotoxicity" endpoint_result="> 2500 nM"
compound_structure_string=CC(C)(C)c1cc(NC(=O)Nc2ccc(-c3cn4c(n3)sc3cc(OCCN5CCOCC5)ccc34)cc2)no1 measurement_target="DLD1 NRF2-GOF" assay_readout="TC50 cytotoxicity" endpoint_result="> 1000 nM"
compound_structure_string=O=C(/C=C/c1cccnc1)NCCCCC1CCN(C(=O)c2ccccc2)CC1 measurement_target="DLD1 NRF2-GOF" assay_readout="TC50 cytotoxicity" endpoint_result="> 1000 nM"
compound_structure_string=Cc1cc(F)c(C(=O)Nc2cccc(-c3nncn3C(C)C)n2)cc1-n1cnc(C2CC2)c1 measurement_target="DLD1 NRF2-GOF" assay_readout="TC50 cytotoxicity" endpoint_result="> 1000 nM"
